Reference source for all entries: patent US9670142B2

EXPERIMENTAL TARGET: human fatty acid synthase FASN (Homo sapiens (Human))
PROTOCOL DESCRIPTION: Biochemical activity testing of human fatty acid synthase FASN (NADPH fluorescence intensity enzyme assay)
ASSAY CONTEXT: human recombinant full-length fatty acid synthase
pIC50: −log10 of the molar value.
pIC50 values, listed per item
PROPERTY MEASURED: pIC50

CCC(=O)N[C@H]1CC[C@@H](N(C)C(=O)c2ccc(-c3ccc(OC(F)(F)F)cc3)cc2)C1 [Compound A62]
5.52 to 6.52
CCC(C)CC(=O)N[C@H]1CC[C@@H](N(C)C(=O)c2ccc(-c3nc4ccccc4o3)cc2)C1 (stereo partly shown) [Compound A26]
> 6.52
CCC(=O)N[C@H]1CC[C@@H](N(C)C(=O)c2ccc(-c3ccc4[nH]ncc4c3C)cc2)C1 [Compound A126]
> 6.52
CCC(=O)N[C@H]1CC[C@@H](N(C)C(=O)c2ccc(-c3ccc(Cl)c(F)c3)cc2)C1 [Compound A86]
> 6.52
CC(=O)NCCC(=O)N[C@H]1CC[C@@H](N(C)C(=O)c2ccc(-c3nc4ccccc4o3)cc2)C1 [Compound A38]
5.52 to 6.52
CCC(=O)N[C@H]1CC[C@@H](N(C)C(=O)c2ccc(-c3ccc4c(ccn4C)c3)cc2)C1 [Compound A80]
> 6.52
CCC(=O)N[C@H]1CC[C@@H](N(C)C(=O)c2ccc(-c3ccc(C#N)cc3)cc2)C1 [Compound A12]
> 6.52
CCC(=O)N[C@H]1CC[C@@H](N(C)C(=O)c2ccc(-c3ccc(C)c(F)c3)cc2)C1 [Compound A66]
> 6.52
CN(C(=O)c1ccc(-c2nc3ccc(Cl)cc3o2)nc1)[C@@H]1CC[C@H](NC(=O)[C@@H]2CCCO2)C1 [Compound A154]
> 6.52
CCC(=O)N[C@H]1CC[C@@H](N(C)C(=O)c2cnc(-c3ccc4[nH]ccc4c3)c(F)c2)C1 [Compound A140]
> 6.52

###

EXPERIMENTAL TARGET: human fatty acid synthase FASN (Homo sapiens (Human), UniProt P49327)
Sequence (P49327 whole entry): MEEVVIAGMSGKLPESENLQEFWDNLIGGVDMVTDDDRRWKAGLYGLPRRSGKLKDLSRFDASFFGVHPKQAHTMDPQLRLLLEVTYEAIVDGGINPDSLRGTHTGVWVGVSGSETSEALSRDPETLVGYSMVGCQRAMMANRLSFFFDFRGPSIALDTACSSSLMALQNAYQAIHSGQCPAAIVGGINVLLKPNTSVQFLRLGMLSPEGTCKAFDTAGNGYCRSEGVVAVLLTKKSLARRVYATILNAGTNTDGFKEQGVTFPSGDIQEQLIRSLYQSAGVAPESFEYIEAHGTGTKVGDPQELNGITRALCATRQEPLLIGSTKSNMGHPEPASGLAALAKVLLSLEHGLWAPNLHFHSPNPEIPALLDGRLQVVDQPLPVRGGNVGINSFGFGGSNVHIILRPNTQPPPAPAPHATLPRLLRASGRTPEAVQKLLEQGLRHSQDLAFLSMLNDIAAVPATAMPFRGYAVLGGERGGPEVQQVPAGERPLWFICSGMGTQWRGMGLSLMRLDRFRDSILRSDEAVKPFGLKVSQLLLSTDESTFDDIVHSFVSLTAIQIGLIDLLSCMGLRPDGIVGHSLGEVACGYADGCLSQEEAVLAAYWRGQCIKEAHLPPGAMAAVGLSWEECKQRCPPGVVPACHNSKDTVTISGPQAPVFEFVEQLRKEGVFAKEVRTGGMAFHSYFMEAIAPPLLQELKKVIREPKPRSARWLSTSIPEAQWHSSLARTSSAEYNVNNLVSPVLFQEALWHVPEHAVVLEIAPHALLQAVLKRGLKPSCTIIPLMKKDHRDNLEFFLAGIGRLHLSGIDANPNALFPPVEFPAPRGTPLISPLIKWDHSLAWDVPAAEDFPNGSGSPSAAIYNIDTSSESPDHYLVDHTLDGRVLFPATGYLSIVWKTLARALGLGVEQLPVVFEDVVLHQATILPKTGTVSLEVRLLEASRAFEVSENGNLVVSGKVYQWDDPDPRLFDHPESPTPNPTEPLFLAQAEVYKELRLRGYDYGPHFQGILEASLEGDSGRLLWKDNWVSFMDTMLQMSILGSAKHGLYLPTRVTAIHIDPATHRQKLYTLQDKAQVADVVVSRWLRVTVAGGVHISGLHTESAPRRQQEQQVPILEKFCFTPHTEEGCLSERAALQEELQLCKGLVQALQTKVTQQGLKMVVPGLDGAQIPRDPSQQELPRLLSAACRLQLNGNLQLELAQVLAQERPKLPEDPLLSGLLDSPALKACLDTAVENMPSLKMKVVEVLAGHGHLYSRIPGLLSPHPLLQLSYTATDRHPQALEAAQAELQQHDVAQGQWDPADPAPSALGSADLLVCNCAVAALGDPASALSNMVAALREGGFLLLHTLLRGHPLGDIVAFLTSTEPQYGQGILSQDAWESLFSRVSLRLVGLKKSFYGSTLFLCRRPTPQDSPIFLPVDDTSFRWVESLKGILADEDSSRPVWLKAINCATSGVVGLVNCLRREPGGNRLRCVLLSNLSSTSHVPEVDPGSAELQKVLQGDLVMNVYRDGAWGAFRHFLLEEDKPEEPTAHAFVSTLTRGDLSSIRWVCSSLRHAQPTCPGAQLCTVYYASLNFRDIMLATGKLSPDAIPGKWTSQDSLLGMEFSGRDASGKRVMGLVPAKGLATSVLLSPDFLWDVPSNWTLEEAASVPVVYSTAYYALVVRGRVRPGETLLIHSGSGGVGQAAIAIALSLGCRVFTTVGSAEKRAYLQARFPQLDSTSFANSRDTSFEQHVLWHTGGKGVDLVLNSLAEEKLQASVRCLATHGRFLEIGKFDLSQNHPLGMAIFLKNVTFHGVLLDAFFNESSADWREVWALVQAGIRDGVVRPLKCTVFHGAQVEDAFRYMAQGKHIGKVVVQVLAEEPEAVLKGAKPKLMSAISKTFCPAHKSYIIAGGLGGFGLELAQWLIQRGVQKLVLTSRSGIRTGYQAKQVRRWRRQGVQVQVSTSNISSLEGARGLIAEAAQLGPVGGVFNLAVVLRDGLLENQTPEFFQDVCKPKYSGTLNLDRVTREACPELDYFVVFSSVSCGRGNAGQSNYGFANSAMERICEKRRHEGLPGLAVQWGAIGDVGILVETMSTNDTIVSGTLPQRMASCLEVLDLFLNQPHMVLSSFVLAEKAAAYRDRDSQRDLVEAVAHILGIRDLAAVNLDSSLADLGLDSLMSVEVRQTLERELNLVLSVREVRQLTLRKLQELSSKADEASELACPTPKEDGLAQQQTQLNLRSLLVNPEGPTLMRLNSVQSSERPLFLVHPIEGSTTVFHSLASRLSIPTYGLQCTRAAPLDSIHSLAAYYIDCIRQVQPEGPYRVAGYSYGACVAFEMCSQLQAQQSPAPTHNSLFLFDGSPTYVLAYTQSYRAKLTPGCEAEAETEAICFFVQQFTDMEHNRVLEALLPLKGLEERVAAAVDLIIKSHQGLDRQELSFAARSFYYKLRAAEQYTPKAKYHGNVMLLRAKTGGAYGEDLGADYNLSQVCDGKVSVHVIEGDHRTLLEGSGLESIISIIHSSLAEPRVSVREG
PROTOCOL DESCRIPTION: Biochemical activity testing of human fatty acid synthase FASN (NADPH fluorescence intensity enzyme assay)
ASSAY CONTEXT: human recombinant full-length fatty acid synthase
Method: Biochemical activity testing of human fatty acid synthase FASN Fatty acid synthase FASN is a multifunctional enzyme with seven catalytic activities thereby synthesising long chain fatty acids especially palmitoyl-CoA in the presence of co-factor NADPH starting from the substrates acetyl-CoA and malonyl-CoA. […] After this the fluorescence intensity was measured again in the Envision using the same parameters as described above (second time point measurement). […]
Items are presented alongside their recorded IC50.
PROPERTY MEASURED: IC50

CCC(=O)N[C@H]1CC[C@@H](N(C)C(=O)c2ccc(-c3ccc4c(ccn4C)c3)nn2)C1
< 300 nM
CCC(=O)N[C@H]1CC[C@@H](N(C)C(=O)c2ccc(-c3ccc(C(N)=O)cc3)cc2)C1
< 300 nM
CC[C@@H](C)CC(=O)N[C@@H]1CC[C@@H](N(C)C(=O)c2ccc(-c3nc4ccccc4o3)cc2)C1
3000 to 50000 nM
CCC(=O)N[C@H]1CC[C@@H](N(C)C(=O)c2ccc(-c3ccc4[nH]cc(CN)c4c3)cc2)C1
< 300 nM
CCC(=O)N[C@H]1CC[C@@H](N(C)C(=O)c2cnc(-c3ccc4[nH]ccc4c3)cn2)C1
< 300 nM
CCC(=O)N[C@@H]1CC[C@@H](N(C)C(=O)c2ccc(-c3nc4ccccc4o3)cc2)C1
3000 to 50000 nM

###

EXPERIMENTAL TARGET: human fatty acid synthase FASN (Homo sapiens (Human))
PROTOCOL DESCRIPTION: Biochemical activity testing of human fatty acid synthase FASN (NADPH fluorescence intensity enzyme assay)
ASSAY CONTEXT: human recombinant full-length fatty acid synthase
PROPERTY MEASURED: IC50

CN(C(=O)c1ccc(-c2nc3ccccc3o2)cc1)[C@@H]1CC[C@H](NC(=O)C2(C)CC2)C1 [Compound A3]
< 300 nM
CCC(=O)N[C@H]1CC[C@@H](N(C)C(=O)c2ccc(-c3ccc(F)cc3)cc2)C1 [Compound A53]
< 300 nM
CCC(=O)N[C@H]1CC[C@@H](N(C)C(=O)c2ccc(-c3nc4ccc(F)cc4o3)cc2)C1 [Compound A127]
< 300 nM
CC(=O)N[C@@H](C)C(=O)N[C@H]1CC[C@@H](N(C)C(=O)c2ccc(-c3nc4ccccc4o3)cc2)C1 [Compound A47]
3000 to 50000 nM
CCC(=O)N[C@H]1CC[C@@H](N(C)C(=O)c2cnc(-c3cc(F)c4[nH]ccc4c3)cc2C)C1 [Compound A141]
300 to 3000 nM
CCC(=O)N[C@H]1CC[C@@H](N(C)C(=O)c2ccc(-c3ccc4[nH]ccc4c3F)cc2)C1 [Compound A116]
< 300 nM
CCC(=O)N[C@H]1CC[C@@H](N(C)C(=O)c2ccc(-c3cc4cn[nH]c4cc3C)cn2)C1 [Compound A103]
300 to 3000 nM
CCCCC(=O)N[C@H]1CC[C@@H](N(C)C(=O)c2ccc(-c3nc4ccccc4o3)cc2)C1 [Compound A24]
< 300 nM
CCC(=O)N[C@H]1CC[C@@H](N(C)C(=O)c2cnc(-c3ccc4c(ccn4C)c3)cn2)C1 [Compound A125]
< 300 nM
CN(C(=O)c1ccc(-c2nc3ccccc3o2)cc1)[C@@H]1CC[C@H](NC(=O)Cc2ccccc2)C1 [Compound A23]
< 300 nM
C[C@H](O)C(=O)N[C@H]1CC[C@@H](N(C)C(=O)c2ccc(-c3nc4ccccc4o3)cc2)C1 [Compound A37]
< 300 nM
CCC(=O)N[C@H]1CC[C@@H](N(C)C(=O)c2ccc(-c3ccc4[nH]cnc4c3)cc2)C1 [Compound A76]
< 300 nM
CCC(=O)N[C@H]1CC[C@@H](N(C)C(=O)c2ccc(-c3ccc(C(=O)O)c(C)c3)cc2)C1 [Compound A52]
< 300 nM
CCC(=O)N[C@H]1CC[C@@H](N(C)C(=O)c2ccc(-c3ccc4c(c3)CC(=O)N4)cc2)C1 [Compound A94]
< 300 nM
CO[C@@H](C)C(=O)N[C@H]1CC[C@@H](N(C)C(=O)c2ccc(-c3nc4ccccc4o3)cc2)C1 [Compound A33]
< 300 nM
CCC(=O)N[C@H]1CC[C@@H](N(C)C(=O)c2ccc(-c3ccc4c(c3)OCO4)cc2)C1 [Compound A58]
< 300 nM
CC(C)CC(=O)N[C@H]1CC[C@@H](N(C)C(=O)c2ccc(-c3nc4ccccc4o3)cc2)C1 [Compound A35]
< 300 nM
CCC(=O)N[C@H]1CC[C@@H](N(C)C(=O)c2ccc(-c3ccc4c(c3)OCCO4)cc2)C1 [Compound A87]
< 300 nM
CCC(=O)N[C@H]1CC[C@@H](N(C)C(=O)c2ccc(-c3ccc(C(=O)OC)c(F)c3)cc2)C1 [Compound A69]
< 300 nM

###

EXPERIMENTAL TARGET: human fatty acid synthase FASN (Homo sapiens (Human), UniProt P49327)
PROTOCOL DESCRIPTION: Biochemical activity testing of human fatty acid synthase FASN (NADPH fluorescence intensity enzyme assay)
ASSAY CONTEXT: human recombinant full-length fatty acid synthase
Experimental: Biochemical activity testing of human fatty acid synthase FASN Fatty acid synthase FASN is a multifunctional enzyme with seven catalytic activities thereby synthesising long chain fatty acids especially palmitoyl-CoA in the presence of co-factor NADPH starting from the substrates acetyl-CoA and malonyl-CoA. […] After this the fluorescence intensity was measured again in the Envision using the same parameters as described above (second time point measurement). […]
pIC50: −log10 of the molar value.
PROPERTY MEASURED: pIC50

CN(C(=O)c1ccc(-c2nc3ccccc3o2)cc1)[C@@H]1CC[C@@H](NC(=O)Cc2ccccc2)C1
4.30 to 5.52
CCC(=O)N[C@H]1CC[C@@H](N(C)C(=O)c2ccc(-c3cc(C)c4[nH]ncc4c3)cc2)C1
> 6.52
CCC(=O)N[C@H]1CC[C@@H](N(C)C(=O)c2ncc(-c3nc4ccc(Cl)cc4o3)cn2)C1
4.30 to 5.52
CCC(=O)N[C@H]1CC[C@@H](N(C)C(=O)c2ccc(-c3cc(F)c(C#N)c(F)c3)cc2)C1
4.30 to 5.52

###

EXPERIMENTAL TARGET: human fatty acid synthase FASN (Homo sapiens (Human))
PROTOCOL DESCRIPTION: Biochemical activity testing of human fatty acid synthase FASN (NADPH fluorescence intensity enzyme assay)
ASSAY CONTEXT: human recombinant full-length fatty acid synthase
PROPERTY MEASURED: IC50

CCC(=O)N[C@H]1CC[C@@H](N(C)C(=O)c2ccc(-c3ccc4c(cnn4C)c3)cc2)C1
< 300 nM
CCC(=O)N[C@H]1CC[C@@H](N(C)C(=O)c2ccc(-c3cc(F)c4[nH]cc(C(N)=O)c4c3)c(F)c2)C1
300 to 3000 nM
CCC(=O)N[C@H]1CC[C@@H](N(C)C(=O)c2ccc(-c3ccc(C(F)(F)F)cc3)cc2)C1
< 300 nM
